Target: nAChR formed by the α7 subunit isoform (Rattus norvegicus, UniProt Q05941)
Sequence (Q05941 23-502): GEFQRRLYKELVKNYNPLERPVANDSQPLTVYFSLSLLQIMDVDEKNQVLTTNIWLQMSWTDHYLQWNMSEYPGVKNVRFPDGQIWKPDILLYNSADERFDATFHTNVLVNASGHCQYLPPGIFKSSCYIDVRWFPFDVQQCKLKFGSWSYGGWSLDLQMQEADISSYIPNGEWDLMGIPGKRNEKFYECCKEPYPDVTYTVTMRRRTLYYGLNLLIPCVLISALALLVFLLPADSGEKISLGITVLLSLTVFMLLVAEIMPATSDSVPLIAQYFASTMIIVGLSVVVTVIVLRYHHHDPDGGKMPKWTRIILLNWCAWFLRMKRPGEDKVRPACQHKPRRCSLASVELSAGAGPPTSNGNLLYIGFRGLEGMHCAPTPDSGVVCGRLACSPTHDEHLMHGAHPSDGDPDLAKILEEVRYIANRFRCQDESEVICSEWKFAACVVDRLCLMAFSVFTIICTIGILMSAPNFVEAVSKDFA
Assay: biochemical
Format: binding
REPORTED PROPERTY: log10 IC50 (log10 of the value in µM)
Friendly reminder: values = log10 of IC50, unit µM.

{"columns": ["COMPOUND", "log10 IC50"],
 "data": [
  ["Cc1ccc(N2CCCNCC2)nn1", 0.68]
]}

Find the measured log10 IC50: item "Clc1ccc(N2CCCCNCC2)nn1" , target or system nAChR formed by the α7 subunit isoform (Rattus norvegicus, UniProt Q05941).
0.74

Find the measured log10 IC50: item "CN1CCN(c2cccnc2)CC1" , target or system nAChR formed by the α7 subunit isoform (Rattus norvegicus, UniProt Q05941).
0.83

Every entry's value here was drawn from patent US6897219B2.
